Source of measurements: PubChem BioAssay AID1259407

- System: CCRIS mutagenicity, Ames/micronucleus/aberration tests
- measurement notes: CCRIS mutagenicity studies
- test conditions: Test System: E.COLI; Strain/Indicator: WP2UVRA; Metabolic Activation: RAT LIVER S-9, PHENOBARBITAL AND BETA-NAPHTHOFLAVONE; Method: PREINCUBATION
Active and inactive are the calls of the source. No rule for the calls is given here.
readout label: mutagenic call

Consider the worked cases shown below.
molecule=O=C1CCCCCCCCCCCCCCO1 experimental_value="inactive; negative"
molecule=CCCBr experimental_value="inactive; negative"
molecule=C1COCCN1 experimental_value="inactive; negative"
molecule=Cc1cccc(O)c1C experimental_value="inactive; negative"
molecule="CCCCC(CC)COC(=O)c1ccccc1C(=O)OCC(CC)CCCC (stereo unspecified)" experimental_value="inactive; negative"

Entry O=C(ON=C1C=CC(=NOC(=O)c2ccccc2)C=C1)c1ccccc1 — recorded mutagenic call = inactive; negative

Entry O=[N+]([O-])c1cccc2c([N+](=O)[O-])cccc12 — recorded mutagenic call = active; positive

Entry CC(C)(c1ccccc1)c1ccc(O)cc1 — recorded mutagenic call = inactive; negative

Entry O=C1CCCO1 — recorded mutagenic call = inactive; negative

Entry Cc1c(N=C=O)cccc1N=C=O — recorded mutagenic call = inactive; negative

Entry C=C(C)CCl — recorded mutagenic call = inactive; negative

Entry [Cl][Ti]([Cl])[Cl] — recorded mutagenic call = inactive; negative

Entry O=NN1CN2CN(C1)CN(N=O)C2 — recorded mutagenic call = active; positive

Entry CCC[N+](=O)[O-] — recorded mutagenic call = inactive; negative

Entry O=C1c2ccccc2C(=O)c2c(O)ccc(O)c21 — recorded mutagenic call = inactive; negative

Entry ClCC1CO1 (stereo unspecified) — recorded mutagenic call = active; positive

* * *

- System: CCRIS mutagenicity, Ames/micronucleus/aberration tests
- measurement notes: CCRIS mutagenicity studies
- test conditions: Test System: AMES SALMONELLA TYPHIMURIUM; Strain/Indicator: TA100; Metabolic Activation: HAMSTER, LIVER, S-9, AROCLOR 1254; Method: PREINCUBATION
- Description: The CCRIS database contains chemical records with carcinogenicity, mutagenicity, tumor promotion, and tumor inhibition test results. It was developed by the National Cancer Institute (NCI). Data are derived from studies cited in primary journals, current awareness tools, NCI reports, and other sources. Test results have been reviewed by experts in carcinogenesis and mutagenesis. CCRIS provides historical information from the years 1985 - 2011. It is no longer updated. […]
Active and inactive are the calls of the source. The rule behind the calls is not given here.
# output must be one of active, inactive

compound=Nc1nc(N)nc(N)n1 assigned_class=inactive
compound=ClC(Cl)(Cl)C(Cl)(Cl)Cl assigned_class=inactive
compound="C[C@@H]1Cc2c(Cl)cc(C(=O)NC(Cc3ccccc3)C(=O)O)c(O)c2C(=O)O1 (stereo partly specified)" assigned_class=inactive
compound="CC(I)C1OCC(CO)O1 (stereo unspecified)" assigned_class=active
compound=Nc1ccc(N)c2c1C(=O)c1c(N)ccc(N)c1C2=O assigned_class=inactive

[ask] Which outcome was entered for the compound CC(C)(C#N)N=NC(C)(C)C#N in this test?
[reply] inactive

* * *

- Tested on: CCRIS mutagenicity, Ames/micronucleus/aberration tests
- measurement notes: CCRIS mutagenicity studies
- test conditions: Test System: AMES SALMONELLA TYPHIMURIUM; Strain/Indicator: TA100; Metabolic Activation: RAT, LIVER, S-9, AROCLOR; Method: STANDARD PLATE
The source made the active and inactive calls. The rule behind the calls is not given here.
# output must be one of true (active), false (inactive)

smiles_string=CCCCCCCCC=O assigned_class=false
smiles_string=CCc1ccc(/C=C/c2ccc([N+](=O)[O-])cc2)cc1 assigned_class=true
smiles_string=CCCCNC(=O)n1c(NC(=O)OC)nc2ccccc21 assigned_class=false
smiles_string=O=[N+]([O-])c1ccc2c(c1)Oc1cc(Cl)c(Cl)cc1O2 assigned_class=true
smiles_string=C=C(C)[C@H]1CC=C(C)CC1 assigned_class=false

[ask] Which outcome was entered for the compound CC(C)(C)c1cc(O)ccc1O in this test?
[reply] false

[ask] Which outcome was entered for the compound ClCC(CCl)(CCl)CCl in this test?
[reply] false

* * *

- Test system: CCRIS mutagenicity, Ames/micronucleus/aberration tests
- measurement notes: CCRIS mutagenicity studies
- test conditions: Test System: Ames Salmonella typhimurium; Strain/Indicator: TA102; Metabolic Activation: None; Method: Preincubation
Active and inactive are the calls of the source. How the calls were made is not given here.
readout label: mutagenic call

smiles_string=O=Cc1ccc(CO)o1 readout_label="mutagenic call" experimental_value="inactive; negative"
smiles_string=Nc1ccc(O)c2c1C(=O)C=CC2=O readout_label="mutagenic call" experimental_value="inactive; negative"

* * *

- Test system: CCRIS mutagenicity, Ames/micronucleus/aberration tests
- measurement notes: CCRIS mutagenicity studies
- test conditions: Test System: AMES SALMONELLA TYPHIMURIUM; Strain/Indicator: TA100; Metabolic Activation: NONE; Method: PREINCUBATION
Calls of active or inactive are those of the source. The rule behind the calls is not given here.
# output must be one of Yes (active), No (inactive)

compound=Cc1cc2ccccc2c2ccc3c(c12)[C@H](O)[C@@H](O)[C@H]1O[C@@H]31 assigned_class=No
compound=CC(=O)OCc1ccc2c(c1)OCO2 assigned_class=No
compound="O=C(c1ccccc1)C(O)c1ccccc1 (centres undefined)" assigned_class=No
compound=Oc1ccc(O)cc1 assigned_class=Yes
compound=CCc1cccc(CC)c1N assigned_class=No
compound=Cc1ccc2c(C)c3ccc4ccccc4c3nc2c1 assigned_class=Yes
compound=COC(=O)[C@H]1[C@H]2C[C@@H]3c4[nH]c5cc(OC)ccc5c4CCN3C[C@H]2C[C@@H](OC(=O)c2cc(OC)c(OC)c(OC)c2)[C@@H]1OC assigned_class=No
compound=CC(C)(C)OOC(C)(C)C assigned_class=No
compound="CC12OOC1Oc1ccccc12 (centres undefined)" assigned_class=Yes
compound=CCCCCNCCCCC assigned_class=No

[ask] Which outcome was entered for the compound COP(=O)(OC)OC in this test?
[reply] No

[ask] Which outcome was entered for the compound CCCCCCCCCC(=O)O in this test?
[reply] No

[ask] Which outcome was entered for the compound [Cl][Ti]([Cl])[Cl] in this test?
[reply] No

[ask] Which outcome was entered for the compound [Cl][Sb]([Cl])([Cl])([Cl])[Cl] in this test?
[reply] No

* * *

- Test system: CCRIS mutagenicity, Ames/micronucleus/aberration tests
- measurement notes: CCRIS mutagenicity studies
- test conditions: Test System: AMES SALMONELLA TYPHIMURIUM; Strain/Indicator: TA100; Metabolic Activation: RAT, LIVER, S-9, AROCLOR 1254 (10%); Method: PREINCUBATION
Active and inactive are the calls of the source. No rule for the calls is given here.
# output must be one of yes for active, no for inactive

Worked examples follow.
compound=CCN(CC)CCO assigned_class=no
compound=COC(=O)c1ccc(/C=N/n2nnc3c([nH]c4ccccc43)c2=O)cc1 assigned_class=yes
compound=CN(C)CCN(Cc1ccccc1)c1ccccc1 assigned_class=no
compound=O=Cc1ccccc1Cl assigned_class=no
compound=O=[N+]([O-])C(Br)(Br)Br assigned_class=no

[ask] Which outcome was entered for the compound CN(CCO)CCO in this test?
[reply] no

[ask] Which outcome was entered for the compound O=P(OC(CCl)CCl)(OC(CCl)CCl)OC(CCl)CCl in this test?
[reply] no

[ask] Which outcome was entered for the compound CCN(CC)c1ccc(N=O)c(O)c1 in this test?
[reply] no

[ask] Which outcome was entered for the compound CC(C)(c1ccc(OCC2CO2)cc1)c1ccc(OCC2CO2)cc1 (centres undefined) in this test?
[reply] yes

[ask] Which outcome was entered for the compound Nc1ccccc1C(=O)OC/C=C/c1ccccc1 in this test?
[reply] no

[ask] Which outcome was entered for the compound CCCCCCCCCCCCCOC(=O)c1ccccc1C(=O)OCCCCCCCCCCCCC in this test?
[reply] no

* * *

- Test system: CCRIS mutagenicity, Ames/micronucleus/aberration tests
- measurement notes: CCRIS mutagenicity studies
- test conditions: Test System: AMES SALMONELLA TYPHIMURIUM; Strain/Indicator: TA1535; Metabolic Activation: NONE; Method: PREINCUBATION
- Description: The CCRIS database contains chemical records with carcinogenicity, mutagenicity, tumor promotion, and tumor inhibition test results. It was developed by the National Cancer Institute (NCI). Data are derived from studies cited in primary journals, current awareness tools, NCI reports, and other sources. Test results have been reviewed by experts in carcinogenesis and mutagenesis. CCRIS provides historical information from the years 1985 - 2011. It is no longer updated. […]
The source made the active and inactive calls. How the calls were made is not given here.
# output must be one of label 1 (active), label 0 (inactive)

compound="C=C(C)[C@@]12OC3(c4ccccc4)O[C@@H]1[C@@H]1[C@@H]4OC4(CO)[C@@H](O)[C@]4(O)C(=O)C(C)=C[C@H]4[C@@]1(O3)[C@H](C)[C@H]2OC(=O)/C=C/C=C/c1ccccc1 (stereo partly specified)" assigned_class="label 0"
compound=Nc1ccc2c(N)c3ccccc3nc2c1 assigned_class="label 0"
compound=O[C@H]1[C@@H]2O[C@@H]2C=C[C@@H]1O assigned_class="label 1"
compound=C[C@](N)(Cc1ccc(O)c(O)c1)C(=O)O assigned_class="label 0"
compound="CC1CC(OC(=O)c2ccccc2O)CC(C)(C)C1 (stereo unspecified)" assigned_class="label 0"
compound="CN(C)CCC(c1ccccc1)c1ccccn1 (stereo unspecified)" assigned_class="label 0"
compound=CN(Cc1ccccc1)N=O assigned_class="label 0"
compound=CN[C@@H]1[C@@H](O)[C@@H](O[C@@H]2[C@@H](O)[C@H](O[C@H]3O[C@H](CN)[C@@H](O)[C@H](O)[C@H]3O)[C@@H](N)C[C@H]2NC(=O)[C@@H](O)CN)OC[C@]1(C)O assigned_class="label 0"
compound=CCCC(=O)c1cc(O)c(O)cc1O assigned_class="label 0"
compound=COc1ccc(CN(CCN(C)C)c2ccccn2)cc1 assigned_class="label 0"

Please turn your attention to the following entry.
[ask] Which outcome was entered for the compound COc1ccc(C=O)cc1OC in this test?
[reply] label 0
